Target: serotonin (5-HT) reuptake (Rattus norvegicus)
Construct: synaptosomes are freshly isolated from areas of the rat brain; from tissue; host or cells: rat brain synaptosomes (P2 fraction)
Assay: Inhibition of serotonin (5HT) reuptake in synaptosomes from rat brain
Assay type: biochemical
Settings: test concentration of 10 μM
Method: Binding data of the compounds on the μ opioid receptor and data on the inhibition of reuptake of serotonin (5-HT) are given in Table 1. The data for the μ receptor were measured at a test concentration of 1 μM, and those for the serotonin reuptake at 10 μM. The values are stated in % inhibition. Inhibition of Serotonin (5HT) Reuptake In order to be able to carry out these in vitro studies, synaptosomes are freshly isolated from areas of the rat brain. […]
Would you mind telling me the reported 5-HT (inhibition of reuptake of serotonin, % inhibition) of each entry?

| COMPOUND | REPORTED |
| --- | --- |
| CN(C)C(c1cccc(F)c1)C1CCC(NC(=O)COCCN(C)S(=O)(=O)c2ccc(F)cc2)CC1 (centres unmarked) | 84% |

Please look at the items below and tell me 5-HT (inhibition of reuptake of serotonin, % inhibition) for each one, in order.
1. COc1cc(C)c(S(=O)(=O)N(C)CCOCC(=O)NCC2CCC(C(c3ccc(F)cc3)N(C)C)CC2)c(C)c1 (centres unmarked)
2. CN(C)C(CCc1ccccc1)C1CCC(CNC(=O)COC2CCCN(S(=O)(=O)c3ccccc3)C2)CC1 (centres unmarked)
3. CN(C)C(CCc1ccccc1)C1CCC(CNC(=O)COCCN(Cc2ccccc2)S(=O)(=O)c2ccccc2)CC1 (centres unmarked)
4. CN(C)C(c1cccc(F)c1)C1CCC(CCNC(=O)COC2CCCN(S(=O)(=O)c3ccccc3)C2)CC1 (centres unmarked)

1: 85%; 2: 92%; 3: 93%; 4: 97%

###

Target: serotonin (5-HT) reuptake (Rattus norvegicus, UniProt P31652)
Construct: synaptosomes are freshly isolated from areas of the rat brain; from tissue; host or cells: rat brain synaptosomes (P2 fraction)
Sequence (P31652 whole entry): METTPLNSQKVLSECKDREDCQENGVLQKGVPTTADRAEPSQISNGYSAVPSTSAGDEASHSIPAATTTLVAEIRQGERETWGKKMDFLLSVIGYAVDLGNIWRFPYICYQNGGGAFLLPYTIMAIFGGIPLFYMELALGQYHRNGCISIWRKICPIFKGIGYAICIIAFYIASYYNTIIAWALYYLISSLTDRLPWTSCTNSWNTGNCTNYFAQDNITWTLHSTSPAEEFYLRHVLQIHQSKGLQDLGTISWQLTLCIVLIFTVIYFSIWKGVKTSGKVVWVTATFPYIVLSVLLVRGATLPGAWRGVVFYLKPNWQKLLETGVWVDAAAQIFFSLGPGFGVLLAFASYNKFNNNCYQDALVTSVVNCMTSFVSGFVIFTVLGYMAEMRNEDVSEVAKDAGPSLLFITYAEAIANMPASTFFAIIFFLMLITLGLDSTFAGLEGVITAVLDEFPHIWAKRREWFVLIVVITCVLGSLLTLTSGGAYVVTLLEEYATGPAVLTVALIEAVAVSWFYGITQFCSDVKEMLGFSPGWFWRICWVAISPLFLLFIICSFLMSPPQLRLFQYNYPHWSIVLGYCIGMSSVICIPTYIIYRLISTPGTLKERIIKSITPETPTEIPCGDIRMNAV
Test: Inhibition of serotonin (5HT) reuptake in synaptosomes from rat brain
Assay type: biochemical
Conditions: test concentration of 10 μM
MEASUREMENT NAME: 5-HT (inhibition of reuptake of serotonin, % inhibition) (%)
Numbers only, in %.

Check out these entries, answers already filled in.
| MOLECULE | REPORTED |
| --- | --- |
| COc1cc(C)c(S(=O)(=O)N2CCC(CCOCC(=O)NCC3CCC(C(c4ccc(Cl)cc4)N(C)C)CC3)CC2)c(C)c1C (stereo not shown) [Example 499] | 75 |
| COc1cc(C)c(S(=O)(=O)N2CCC(OCC(=O)NC3CCC(C(c4ccc(F)cc4)N(C)C)CC3)C2)c(C)c1 (stereo not shown) [Example 441] | 99 |
| COc1ccc(S(=O)(=O)N(C)CCOCC(=O)NCCC2CCC(C(c3cccc(F)c3)N(C)C)CC2)cc1OC (stereo not shown) [Example 293] | 95 |
| CN(C)C(c1ccc(F)cc1)C1CCC(CCNC(=O)COCCN(C)S(=O)(=O)c2c(Cl)cccc2Cl)CC1 (stereo not shown) [Example 285] | 89 |
| Cc1cc(C)c(S(=O)(=O)N(C)CCOCC(=O)NCCC2CCC(C(c3cccc(F)c3)N(C)C)CC2)c(C)c1 (stereo not shown) [Example 587] | 86 |

Please look at the items below and tell me 5-HT (inhibition of reuptake of serotonin, % inhibition) for each one, in order.
1. CN(C)C(c1ccc(F)cc1)C1CCC(CCNC(=O)COCCC2CCN(S(=O)(=O)c3ccccc3)CC2)CC1 (stereo not shown) [Example 470]
2. CN(C)C(c1ccc(F)cc1)C1CCC(CCNC(=O)COC2CCN(S(=O)(=O)c3ccc(F)cc3)C2)CC1 (stereo not shown) [Example 518]

1: 82; 2: 102
